target: HLA-DR molecule DRB4*0101 (DRw53) (human); test: inhibition of radiolabelled probe peptide binding to purified MHC class II
READOUT NAME: IC50
Give me the value, and tack the unit on after it.

-- ask What does the record list as IC50 for GLRSLTTLLGALGAQ [EPO 101 analog peptide GLRSLTTLLGALGAQ (SEQ ID NO: 194)] ?
-- reply 13 nM
